system: HOP-62 NSCLC; test: NCI-60 one-dose screen, 48 h (100 = growth as untreated, 0 = no growth, -100 = all killed); conditions: 10 µM unless noted
The panel holds about 83,000 compounds, 20% with a hit somewhere; the sample as a whole holds those more often.

{"molecular string": "N#Cc1c(N)nn(C(=O)c2ccc(NC(=O)c3ccccn3)cc2)c1-c1ccc(Cl)cc1", "growth, %": -18.4}
{"molecular string": "COc1ccc(NC(=O)CSc2nnc(-c3cc(-c4ccccc4)nc4ccccc34)n2-c2ccccc2)cc1", "growth, %": 101}
{"molecular string": "CCOC(=O)c1c(-c2ccc(Cl)cc2)c(C#N)c(=O)n(-c2ccccc2CC)c1N", "growth, %": 97.5}
{"molecular string": "O=C(Nc1ccccc1Cl)Oc1ccc(-c2ccccc2)cc1", "growth, %": 96.3}
{"molecular string": "Cc1nn(-c2ccccc2)c2nc3c(c(-c4ccc(Cl)cc4)c12)CNC1(CCSCC1)N3", "growth, %": 93.6}
{"molecular string": "CN(C)CCNc1nc2ccccc2c2c1c1c(n2Cc2ccccc2)-c2ccccc2C1=O", "growth, %": -90.4}
{"molecular string": "COc1ccc2oc3c(C)c4c(c(C)c3c2c1)C(=O)N(Cc1ccccc1)C4=O", "growth, %": 88.9}
{"molecular string": "CCOc1c(C#N)nnc2c(C#N)c(NC(=O)c3ccccc3)nn12", "growth, %": 96.6}
{"molecular string": "O=C(O)c1ccc2c(c1Cl)C(=O)c1ccccc1C2=O", "growth, %": 82.5}
{"molecular string": "Clc1cccc(Cl)c1C(Nc1nc2ccccc2s1)Nc1nc2ccccc2s1", "growth, %": 99.7}

* * *

system: M14 melanoma; assay: NCI-60 one-dose screen, 48 h (100 = growth as untreated, 0 = no growth, -100 = all killed); conditions: 10 µM unless noted
The panel holds about 83,000 compounds, 20% with a hit somewhere; the sample as a whole holds those more often.
Binary call on growth: true (1) from 20% upward, false (0) beneath that.

{"compound": "Cn1c(=O)c2c(nc(Cl)n2CCl)n(C)c1=O", "assigned class": "false (0)"}
{"compound": "O=S(=O)(NCCCNc1cc(-c2c(-c3cccc(O)c3)nc3sccn23)ccn1)c1cccc(Cl)c1", "assigned class": "true (1)"}
{"compound": "Cc1ccccc1NC(=O)N/C(N)=N/c1nc(C)c(C)s1", "assigned class": "true (1)"}
{"compound": "OC(COc1ccccc1Cl)COc1ccccc1Cl", "assigned class": "true (1)"}
{"compound": "Cc1ccc(/C=C/c2c(C(=O)/C=C/c3ccc(Cl)cc3)c(C)nc3ccccc23)cc1", "assigned class": "false (0)"}
{"compound": "COc1cc(C2CC(=O)Nc3c2c(C)nn3-c2nc3ccccc3[nH]2)c(OC)c2c1OCO2 (stereo not given)", "assigned class": "true (1)"}
{"compound": "O=C(COc1ccc(/C=C2\\Oc3ccccc3C2=O)cc1)c1ccc(Cl)cc1", "assigned class": "true (1)"}
{"compound": "Cc1ccc2nc(NC(=O)CSc3nc(-c4ccccc4)c(C#N)c(=O)n3Cc3ccccc3)sc2c1", "assigned class": "true (1)"}
{"compound": "CC1=C([Se]CC(OC(=O)CC[Se]c2ccccc2)C(=O)NCCCCCC(=O)OCc2ccccc2)C(=O)c2ccccc2C1=O (stereo not given)", "assigned class": "false (0)"}
{"compound": "Cc1ccc(S(=O)(=O)Oc2cc(OS(=O)(=O)c3ccc(C)cc3)cc(OS(=O)(=O)c3ccc(C)cc3)c2)cc1", "assigned class": "true (1)"}
{"compound": "CCCCn1c(=O)c2c(nc3n2CCCN3CCc2ccc(OCC(=O)NCCN(CC)CC)cc2)n(CCCC)c1=O", "assigned class": "false (0)"}
{"compound": "COc1cc(-c2nn(-c3ccccc3)cc2-c2ccnc(NCCNS(=O)(=O)c3ccc(Cl)cc3)n2)ccc1Cl", "assigned class": "true (1)"}
{"compound": "CC(C)CCC[C@@H](C)[C@H]1CC[C@H]2[C@@H](Nc3ccc(O)cc3)CCC[C@]12C", "assigned class": "true (1)"}
{"compound": "O=C(O)CN1C(=O)CCC1=O", "assigned class": "true (1)"}
{"compound": "COc1cccc(-c2nn(-c3ccccc3)cc2-c2ccnc(NCCNC(=O)Nc3cccc(C(F)(F)F)c3)c2)c1", "assigned class": "false (0)"}
{"compound": "Fc1ccc(CNc2c3ccccc3nc3ccccc23)cc1F", "assigned class": "true (1)"}
{"compound": "Cn1c(I)c(C#C[Si](C)(C)C)c(=O)n(C(=O)c2ccccc2)c1=O", "assigned class": "false (0)"}
{"compound": "CCN(CC)CCCC(C)Nc1c2ccc(Cl)cc2nc2ccc(O)cc12 (stereo not given)", "assigned class": "false (0)"}
{"compound": "COc1ccc(-c2csc(C3=C(O)CN(C(C)C)C3=N)n2)cc1OC", "assigned class": "true (1)"}
{"compound": "COc1ccc(-c2nc3sccn3c2-c2cc(-c3cc(OC)c(OC)c(OC)c3)on2)cc1", "assigned class": "true (1)"}

* * *

test system: SNB-19 CNS; assay: NCI-60 one-dose screen, 48 h; settings: 10 µM unless noted
About 83,000 compounds went through this panel and 20% of them were active in at least one assay; those are over-represented in the sample as a whole. Active and inactive are the calls of the source. Rule for the calls: active = growth percent below 10; inactive = the rest.
Labels: active, inactive

{"molecular string": "O=C(CCCCCCSc1nc(-c2ccccc2)cc(-c2ccc(Cl)cc2)n1)NO", "assigned class": "inactive"}
{"molecular string": "c1ccc2cc3nc4cc5ccccc5cc4nc3cc2c1", "assigned class": "inactive"}
{"molecular string": "Cc1cc(N2CCCC2)nc(NCc2cc(Nc3ccnc4cc(Cl)ccc34)ccc2F)n1", "assigned class": "active"}
{"molecular string": "COc1c(CCC[P+](c2ccccc2)(c2ccccc2)c2ccccc2)cc2c(c1OC)OCO2", "assigned class": "active"}
{"molecular string": "CCCCCCCCn1ccc2cc(NC(=O)Cn3cc(CN4CCCC4)nn3)ccc21", "assigned class": "active"}
{"molecular string": "COc1cc2ncn3c(=O)c4c5c(sc4nc3c2cc1OC)CCCC5", "assigned class": "inactive"}
{"molecular string": "COc1ccc(NC(=O)CSc2nnc(-c3cc(-c4ccccc4)nc4ccccc34)n2-c2ccccc2)cc1", "assigned class": "inactive"}
{"molecular string": "O=C(O)CN1C(=O)CCC1=O", "assigned class": "inactive"}
{"molecular string": "CCOc1ccccc1-c1cc(-c2cccs2)c(C#N)c(=O)[nH]1", "assigned class": "inactive"}
{"molecular string": "Cc1ccc(Nc2ccc(Nc3ccc(C)cc3)c3c2C(=O)c2cccc(O)c2C3=O)cc1", "assigned class": "inactive"}
{"molecular string": "O=c1oc2ccccc2c(Cl)c1Cl", "assigned class": "inactive"}

* * *

test system: NCI-H322M lung; experiment: NCI-60 one-dose screen, 48 h; conditions: 10 µM unless noted
The panel holds about 83,000 compounds, 20% with a hit somewhere; the sample as a whole holds those more often. Active and inactive are the calls of the source. The calls were made as follows: active = growth percent below 10; inactive = the rest.
Labels: YES for active, NO for inactive

{"compound": "CCN(CC)CCCC(C)Nc1c2ccc(Cl)cc2nc2ccc(O)cc12 (centres undefined)", "assigned class": "NO"}
{"compound": "COc1ccc(C(=O)COc2ccc(/C=C3\\Oc4ccccc4C3=O)cc2)cc1", "assigned class": "NO"}
{"compound": "C[C@@]1(CCC#N)[C@H]2CC[C@@H]3[C@H]4[C@H](C(=O)/C=C/c5cccnc5)CC[C@]4(C#N)CC[C@@]3(C)[C@]2(C)CC[C@H]1C(=O)/C=C/c1cccnc1", "assigned class": "NO"}
{"compound": "COc1ccc2oc3c(C)c4c(c(C)c3c2c1)C(=O)N(Cc1ccccc1)C4=O", "assigned class": "NO"}
{"compound": "C=C1C(=O)O[C@H]2[C@H]1CC/C(CNC(=O)/C=C/c1ccc(Cl)cc1Cl)=C\\CC[C@@]1(C)O[C@@H]21", "assigned class": "NO"}
{"compound": "O=C(Nc1cccc(Cl)c1)c1cc(N=Nc2ccc([N+](=O)[O-])cc2Cl)ccc1O", "assigned class": "NO"}
{"compound": "COc1ccc2c(c1)O/C(=C/c1ccc(OCC(=O)c3ccccc3)cc1)C2=O", "assigned class": "NO"}
{"compound": "COC(=O)c1c2c(c(C)[n+]([O-])c1C)C(=O)C(NCc1ccc(F)c(Cl)c1)=CC2=O", "assigned class": "YES"}
{"compound": "N#Cc1c(-c2ccccn2)[nH]c(=S)[nH]c1=O", "assigned class": "NO"}
{"compound": "COc1ccc2c(c1)C(=O)/C(=C/c1cccc(OCC(=O)Nc3nc(C)c(C)s3)c1)O2", "assigned class": "NO"}
{"compound": "COc1ccc2nc(NNC(=O)c3cnccn3)c3cccn3c2c1", "assigned class": "YES"}
{"compound": "Nc1nc(N)c2c(n1)NC(c1ccccc1)C1CCc3ccccc3C1=N2 (centres undefined)", "assigned class": "NO"}
{"compound": "O=C(c1ccc(Nc2nccc(NCCCCNc3ccnc4cc(Cl)ccc34)n2)cc1)N1CCCCC1", "assigned class": "NO"}
{"compound": "NS(=O)(=O)c1ccc(-n2nc(C(=O)N/N=C\\c3ccc(F)cc3)cc2-c2ccc(Cl)cc2)cc1", "assigned class": "NO"}
{"compound": "CCc1ccccc1NC(=O)/C(C#N)=C/c1ccc(OC)cc1", "assigned class": "NO"}
{"compound": "Clc1cccc(Cl)c1/C=C/c1cc(/C=C/c2c(Cl)cccc2Cl)[nH]n1", "assigned class": "NO"}
{"compound": "Cc1ccc(Cc2cnc(NC(=O)c3ccc4noc(-c5ccccc5)c4c3)s2)cc1", "assigned class": "NO"}
{"compound": "CCN(CC)S(=O)(=O)c1cccc(-c2ccc3c(NC(=O)C4CC4)n[nH]c3c2)c1", "assigned class": "NO"}
{"compound": "Clc1ccc(-c2c3ccc(=[N+]4CCCCC4)cc-3oc3cc(N4CCCCC4)ccc23)cc1", "assigned class": "YES"}
